Origin of values: patent US20210054097A1

# target_entity: human plasma-derived Factor X zymogen (human, UniProt P00742 41-179; P00742 183-488)
# Sequence (P00742 41-179, chain 1 of 2): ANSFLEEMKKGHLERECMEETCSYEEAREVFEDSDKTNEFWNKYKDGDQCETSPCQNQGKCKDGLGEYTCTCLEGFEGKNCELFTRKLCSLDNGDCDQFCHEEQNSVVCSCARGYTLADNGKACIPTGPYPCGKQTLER
# Sequence (P00742 183-488, chain 2 of 2): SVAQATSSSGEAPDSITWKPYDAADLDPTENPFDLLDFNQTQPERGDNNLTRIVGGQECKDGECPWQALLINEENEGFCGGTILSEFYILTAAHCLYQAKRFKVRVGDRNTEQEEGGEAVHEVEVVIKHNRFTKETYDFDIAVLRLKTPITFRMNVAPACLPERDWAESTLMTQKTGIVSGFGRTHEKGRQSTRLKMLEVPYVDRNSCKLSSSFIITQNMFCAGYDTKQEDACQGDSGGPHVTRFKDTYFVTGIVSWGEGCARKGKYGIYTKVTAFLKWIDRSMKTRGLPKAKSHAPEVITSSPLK
# assay_method_text: cell-based or functional assay
Parameter: Increase in FX activation (fold). Scope: all listed entries.
Value expressed in fold; do not type the unit.

Below, each entry is followed by its recorded Increase in FX activation (fold) result.
[in] Report Increase in FX activation (fold) for Nb 729A04 (VHH, monovalent Nanobody; not shown: C-terminal FLAG3 and HIS6 tag) VHH: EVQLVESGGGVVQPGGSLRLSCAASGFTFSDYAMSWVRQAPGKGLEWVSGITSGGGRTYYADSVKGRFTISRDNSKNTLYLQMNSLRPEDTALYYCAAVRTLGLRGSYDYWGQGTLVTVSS
[out] 4.1

[in] Let me know recorded Increase in FX activation (fold) for Nb 501A02 (VHH, monovalent control Nanobody; also called control Nanobody; not shown: C-terminal FLAG3 and HIS6 tag) VHH: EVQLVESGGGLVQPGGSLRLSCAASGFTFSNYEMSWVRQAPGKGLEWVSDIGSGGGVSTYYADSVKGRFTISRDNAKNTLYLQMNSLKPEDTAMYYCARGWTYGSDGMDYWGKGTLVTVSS , thanks.
[out] 0.8

Now for the binder whose Increase in FX activation (fold) we want.
[in] Check the records and state Increase in FX activation (fold) for Nb 730C03 (VHH, monovalent Nanobody; also called Nb 730003; not shown: C-terminal FLAG3 and HIS6 tag) VHH: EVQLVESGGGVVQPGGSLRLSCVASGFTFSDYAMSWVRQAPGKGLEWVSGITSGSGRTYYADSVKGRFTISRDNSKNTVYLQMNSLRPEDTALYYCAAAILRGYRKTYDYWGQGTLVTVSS
[out] 9.2
